protocol details: Nrf2 qHTS screen for inhibitors; further: nearly all actives have a fitted effect of over 60% in size
assay setup: A549 ARE-Fluc reporter, luciferase luminescence, 18-24 h; series mostly up to 46 µM
In all, about 360,000 compounds went through this assay and about 7,500 (2.1%) were called active. Roughly 20% stayed inconclusive and do not appear here. The call rests on the fitted dose curve; in most records, active means well fitted inhibition curve with a large enough effect; inconclusive means small, poorly fitted or top-dose-only effect, or effect the other way; inactive means flat fitted curve, though single readings scatter. For the sample, actives were picked, then their nearest neighbours and some compounds at random.
Pick one: t (active), f (inactive)

// param item: CCOC(=O)C1=C(C)N(C[C@@H]2CC[C@@H](Cc3ccc(-c4ccccc4)cc3)O2)C(=O)NC1c1ccc([N+](=O)[O-])cc1 (stereo not given in full) ; yields the recorded call
f

// param item: CC1CCN(S(=O)(=O)c2ccc(NC(=O)C3CC(=O)N(c4ccccc4)C3)cc2)CC1 (stereo not given) ; yields the recorded call
t

// param item: O=C(Nc1cccc(S(=O)(=O)Nc2ccc(Cl)cc2)c1)c1ccc2c(c1)OCCO2 ; yields the recorded call
t

// param item: COc1ccc(C2(c3ccc(OC)cc3)NC(=O)N(CC(=O)Nc3cc(C)on3)C2=O)cc1 ; yields the recorded call
f

// param item: N#Cc1ccc(Oc2ccc(C(F)(F)F)cc2NC(=O)c2ccc(F)cc2)cc1 ; yields the recorded call
f

// param item: Cc1ccc(C(=O)NC2CCN(C#N)CC2)cc1 ; yields the recorded call
f

// param item: Cc1ccc(NC(=O)C2CCC(C(C)(C)C)CC2)cc1S(=O)(=O)N1CCOCC1 (stereo not given) ; yields the recorded call
t

// param item: CCOCCOC(=O)C1=C(C)NC(=O)NC1c1ccc2c(c1)OCO2 (stereo not given) ; yields the recorded call
f

// param item: CCc1ccc(-n2c(SCc3cc(=O)n4cc(Br)ccc4n3)nc3[nH]ncc3c2=O)cc1 ; yields the recorded call
t

// param item: COc1ccc(CCNC(=O)COc2cc(C)cc3oc(=O)c(C)c(C)c23)cc1OC ; yields the recorded call
f

// param item: Cc1ccc(N2CC(C(=O)Nc3ccc(S(=O)(=O)N4CCCC4)cc3)CC2=O)cc1C (stereo not given) ; yields the recorded call
f

// param item: CN1CCOC1c1ccc(C2OCCN2C)cc1 (stereo not given) ; yields the recorded call
f

// param item: COc1ccc(S(=O)(=O)N2CCCCC2)cc1NC(=O)C1CC(=O)N(c2ccc3c(c2)OCCO3)C1 (stereo not given) ; yields the recorded call
t

// param item: COc1ccc(C(CNC(=O)c2cccc(S(=O)(=O)Nc3ccc(Br)cc3)c2)N(C)C)cc1 (stereo not given) ; yields the recorded call
f

// param item: Cc1ccccc1N1CC(C(=O)Nc2ccc(S(=O)(=O)N3CCCC3)cc2)CC1=O (stereo not given) ; yields the recorded call
f

// param item: CCN1CCN(CCNC(=O)c2ccc(/C=C3/Sc4ccccc4N(Cc4cccc(C)c4)C3=O)cc2)CC1 ; yields the recorded call
f

// param item: COc1ccc(S(=O)(=O)N2CCCCCC2)cc1NC(=O)Cc1ccc(OC)c(OC)c1 ; yields the recorded call
f

// param item: COc1cc(CNCCN(C)C)ccc1OCc1c(F)cccc1Cl ; yields the recorded call
f

// param item: COCCOC(=O)C1=C(C)NC(=O)NC1c1ccc(Cl)cc1 (stereo not given) ; yields the recorded call
f

// param item: CCOC(=O)c1ccc(NC(=O)C2CC(=O)N(c3ccc4c(c3)OCCO4)C2)cc1 (stereo not given) ; yields the recorded call
f

// param item: CN1CCC(N(C)C(=O)c2ccc(Cl)c(S(=O)(=O)Nc3ccc(Cl)cc3)c2)CC1 ; yields the recorded call
f

// param item: Cc1ccc(NC(=O)NC2CCCCC2)cc1S(=O)(=O)N1CCOCC1 ; yields the recorded call
f

// param item: COCCCNC(=O)/C=C/c1ccc(OCc2c(F)cccc2Cl)cc1 ; yields the recorded call
f

// param item: COc1ccc(CCNC(=O)CSc2nc3[nH]ncc3c(=O)n2-c2cccc(C(F)(F)F)c2)cc1OC ; yields the recorded call
f

// param item: CCN1/C(=C/c2ccc3ccc(C)cc3[n+]2CC)Sc2ccccc21 ; yields the recorded call
t

// param item: COc1ccccc1N1CC(C(=O)Nc2ccc(S(=O)(=O)N3CCOCC3)cc2)CC1=O (stereo not given) ; yields the recorded call
f

// param item: Cc1cc2c(cc3c(SCc4cccc(Cl)c4)nnc(C)n32)o1 ; yields the recorded call
f

// param item: N#Cc1ccc(C(=O)Nc2nc(-c3cccs3)c(C(=O)C(F)(F)F)s2)cc1 ; yields the recorded call
t

// param item: COc1cc(OC)c(NC(=O)Cc2ccc(-n3c(C)nc4cccnc43)cc2)cc1Cl ; yields the recorded call
f

// param item: COC(=O)[C@]1(Cc2ccccc2)N[C@H](CN(C)S(=O)(=O)c2ccc(OC(F)(F)F)cc2)[C@@H]2C(=O)N(C)C(=O)[C@@H]21 ; yields the recorded call
f

// param item: COC(=O)c1ccccc1NC(=O)c1ccc(C#N)cc1 ; yields the recorded call
f

// param item: CCCCn1nc(C(=O)Nc2cccc(C(=O)NC3CC3)c2)c2ccccc2c1=O ; yields the recorded call
f

// param item: COc1cc(O)c2c(=O)c3c(O)c(O)ccc3oc2c1OC ; yields the recorded call
f

// param item: Cc1nc(SCC(=O)NC2CCCCC2C)c(C#N)c(C)c1C (stereo not given) ; yields the recorded call
f

// param item: O=C(Nc1ccc(NC(=O)c2ccc3c(c2)OCO3)cc1)c1cccc(Cl)c1 ; yields the recorded call
f

---

protocol details: Nrf2 qHTS screen for inhibitors; further: nearly all actives have a fitted effect of over 60% in size
assay setup: A549 ARE-Fluc reporter, luciferase luminescence, 18-24 h; series mostly up to 46 µM
Among all 360,000 compounds or so, about 7,500 (2.1%) were called active. Another 20% or so got no clear call; they are omitted. Calls come from the whole dose curve; as a rule, active = well fitted inhibition curve with a large enough effect; inconclusive = small, poorly fitted or top-dose-only effect, or effect the other way; inactive = flat fitted curve, though single readings scatter. The sample holds actives, similar compounds and a random draw of the others, so the mix is not that of the screen.
Pick one: active, inactive

// param item: O=C(c1c(F)cccc1F)N1CCN(S(=O)(=O)c2ccc3c(c2)OCCO3)CC1 ; yields the recorded call
inactive

// param item: O=C(CN1CCN(C2CCS(=O)(=O)C2)CC1)N1N=C(c2ccc(Cl)cc2)CC1c1ccco1 (stereo not given) ; yields the recorded call
inactive

// param item: N#CCCN(C(=O)COC(=O)c1ccc2c(c1)OCCO2)c1ccccc1 ; yields the recorded call
inactive

// param item: COc1ccccc1N1CCN(CCCNC(=O)c2cnn(-c3ccccc3Cl)c2C2CCN(C(=O)OC(C)(C)C)CC2)CC1 ; yields the recorded call
inactive

// param item: COc1cccc(CNC(=O)c2ccc3c(c2)N(Cc2ccc(C(F)(F)F)cc2)C(=O)c2ccccc2S3)c1OC ; yields the recorded call
inactive

// param item: CC(C)(c1ccccc1)c1ccc(OCCN)cc1 ; yields the recorded call
inactive

// param item: CC(C)(C)c1ccc(Oc2ccc(N)cc2)cc1 ; yields the recorded call
active

// param item: COC(=O)c1ccc(NCc2cc(O)ccc2O)cc1 ; yields the recorded call
inactive

// param item: O=C(NCc1cccs1)C1CCN(S(=O)(=O)c2ccc3c(c2)OCCO3)CC1 ; yields the recorded call
inactive

// param item: Cc1ccccc1C(=O)Nc1cc(C)c(O)c(-c2nc3ccccc3o2)c1 ; yields the recorded call
inactive

---

protocol details: Nrf2 qHTS screen for inhibitors; further: nearly all actives have a fitted effect of over 60% in size
assay setup: A549 ARE-Fluc reporter, luciferase luminescence, 18-24 h; series mostly up to 46 µM
Hit rate of the full screen: of about 360,000 compounds, about 7,500 (2.1%) were called active. Inconclusive results (about 20%) are left out. The call rests on the fitted dose curve; in most records, active means well fitted inhibition curve with a large enough effect; inconclusive means small, poorly fitted or top-dose-only effect, or effect the other way; inactive means flat fitted curve, though single readings scatter. Shown is part of a subset that was picked to be rich in actives.
Pick one: active, inactive

// param item: O=[N+]([O-])c1ccccc1/C=C/CN1CCCC(CO)C1 (stereo not given) ; yields the recorded call
inactive

// param item: Cn1c(=O)c2c(nc(SCC(=O)Nc3ccc(F)cc3)n2Cc2ccc(Cl)cc2)n(C)c1=O ; yields the recorded call
inactive

// param item: Cc1ccc(OCCNC(=O)c2cccc(S(=O)(=O)N3CCN(Cc4ccccc4)CC3)c2)cc1 ; yields the recorded call
active

// param item: CC(C)[C@@H](C(=O)OCC(=O)c1ccc2c(c1)NC(=O)CO2)N1C(=O)c2ccccc2C1=O ; yields the recorded call
inactive

// param item: CN1CCN(S(=O)(=O)c2cccc(C(=O)O)c2)CC1 ; yields the recorded call
inactive

// param item: Cc1cccc(N2CCN(C(=O)c3oc(=O)c4ccccc4c3-c3ccccc3)CC2)c1C ; yields the recorded call
inactive

// param item: Cc1ccc(S(=O)(=O)N2CCN(c3nc(-n4cnc5ccccc54)nc4ccccc34)CC2)cc1 ; yields the recorded call
inactive

// param item: COC(=O)c1ccccc1NC(=O)c1cc(-c2ccccc2O)no1 ; yields the recorded call
inactive

// param item: Cc1ccc(C)c(S(=O)(=O)N2CCN(c3ncnc4sccc34)CC2)c1 ; yields the recorded call
active

// param item: COc1ccc(C)cc1S(=O)(=O)N1CCN(S(=O)(=O)c2cc(C(=O)O)ccc2C)CC1 ; yields the recorded call
inactive

---

protocol details: Nrf2 qHTS screen for inhibitors; further: nearly all actives have a fitted effect of over 60% in size
assay setup: A549 ARE-Fluc reporter, luciferase luminescence, 18-24 h; series mostly up to 46 µM
Among all 360,000 compounds or so, about 7,500 (2.1%) were called active. Inconclusive results (about 20%) are left out. Calls follow the shape of the dose curve; as a rule, active = well fitted inhibition curve with a large enough effect; inconclusive = small, poorly fitted or top-dose-only effect, or effect the other way; inactive = flat fitted curve, though single readings scatter. The sample as a whole holds a higher share of actives than the screen did.
Pick one: active, inactive

// param item: O=C(Nc1ccn(CCCNCc2ccc3[nH]ccc3c2)c(=O)n1)OCc1ccccc1 ; yields the recorded call
inactive

// param item: COc1cccc(NS(=O)(=O)c2ccc(-c3coc(C)n3)cc2)c1 ; yields the recorded call
inactive

// param item: CCc1ccc(CN(C)C(C)C(=O)Nc2ccc(S(=O)(=O)N3CCCC3)cc2)cc1 (centres undefined) ; yields the recorded call
inactive

// param item: Cc1cccc(C(C)C)c1NC(=O)C(NS(=O)(=O)c1cccc2nsnc12)c1ccccc1 (centres undefined) ; yields the recorded call
inactive

// param item: CC1CCCN(S(=O)(=O)c2ccc(C(=O)Nc3nnc(-c4ccncc4)o3)cc2)C1 (centres undefined) ; yields the recorded call
active

// param item: O=C(c1cncc(Br)c1)N1CCN(c2ccc([N+](=O)[O-])cc2)CC1 ; yields the recorded call
inactive

// param item: O=C(c1cc(C(=O)N2CCN(c3ccc(F)cc3)CC2)cc([N+](=O)[O-])c1)N1CCN(c2ccc(F)cc2)CC1 ; yields the recorded call
active

// param item: O=C(c1cc2cc(F)ccc2[nH]1)N1CCN(c2ccc(F)cc2)CC1 ; yields the recorded call
inactive

// param item: CC1CCCN(C(=O)Cn2c(=O)oc3cc(S(=O)(=O)N4CCCCC4C)ccc32)C1 (centres undefined) ; yields the recorded call
inactive
